method_description: chemical genetic growth profiling, strain panel (AID 1159580);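 note: tested at 20 µM; growth read once vehicle control cultures reached saturation at 30 °C; 1 = growth at the plate median or of vehicle wells; lower values mean less growth of the strain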
run_parameters: S. cerevisiae deletion strains, growth OD, locus YAL013W, strain DEP1, hits give low values
The whole screen tested about 5,500 compounds, of which about 2,000 (36%) were called active. Another 18% or so got no clear call; they are omitted. Some of the results follow.
Label 1 when normalized growth is strictly below 1; at or above that, label 0.

compound_structure_string=Cc1cc(=O)n2[nH]cnc2n1 label_class=0

Next, consider the following compound.
Does the reported normalized growth of the following compound sit strictly below 1? O=C1C(Cl)=C(Cl)C(=O)C(Cl)=C1Cl 1

###

method_description: chemical genetic growth profiling, strain panel (AID 1159580);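 note: tested at 20 µM; growth read once vehicle control cultures reached saturation at 30 °C; 1 = growth at the plate median or of vehicle wells; lower values mean less growth of the strain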
run_parameters: S. cerevisiae deletion strains, growth OD, locus YLR221C, strain rsa3, hits give low values
About 2,000 (36%) of roughly 5,500 compounds were called active. Not shown: some 18% with an inconclusive outcome. The list shows a part of the results.
Reported normalized growth values follow for various compounds

Worked set:
compound=C#CCN(C)Cc1ccccc1 reported_result="1.01 (inactive)"
compound=CC[C@@H]1C=C/C=C/C[C@H](C)[C@@H](O)[C@](C)(O)C(=O)[C@H](C)[C@@H](O)[C@H](C)C(=O)[C@H](C)[C@@H](O)[C@H](C)/C=C/C(=O)O[C@H]2[C@@H](C)[C@@H](CC1)O[C@@]1(CC[C@@H](C)[C@@H](C[C@H](C)O)O1)[C@@H]2C reported_result="1.02 (inactive)"
compound=O=S(=O)(O)CCS reported_result="1.03 (inactive)"

# context switch: different compound, same normalized growth
// Input: C[C@@H]1CC(Cl)CC[C@H]1C(=O)OC(C)(C)C (some centres undefined) . Output its normalized growth only. 1.01 (inactive)

###

Reported normalized growth values follow for various molecules
method_description: chemical genetic growth profiling, strain panel (AID 1159580);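 note: tested at 20 µM; growth read once vehicle control cultures reached saturation at 30 °C; 1 = growth at the plate median or of vehicle wells; lower values mean less growth of the strain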
run_parameters: S. cerevisiae deletion strains, growth OD, locus YDR502C, strain sam2, hits give low values
Out of some 5,500 compounds screened, about 2,000 (36%) were called active. Another 18% or so got no clear call; they are omitted. The list shows a part of the results.
Write the value as a bare number.

Worked set:
molecule=COC(=O)c1cc(=O)c(O)c2c(O)c(O)ccc2c1 reported_result=0.891
molecule="COc1c(N2CCNC(C)C2)c(F)cc2c(=O)c(C(=O)O)cn(C3CC3)c12 (stereo not drawn)" reported_result=0.996
molecule=COC(=O)/C=C/C(C)=C/C=C/C(C)=C/C=C/C=C(C)/C=C/C=C(C)/C=C/C(=O)O reported_result=1.01
molecule=O=S(=O)(O)CCS reported_result=0.995
molecule=C=CCc1ccc(OC(=O)c2ccccc2)c(OC)c1 reported_result=0.944
molecule=C=CCc1ccc(O)c(OC)c1 reported_result=0.956
molecule="Oc1cc(O)c2c(c1)OC(c1cc(O)c(O)c(O)c1)C(O)C2c1c(O)cc(O)c2c1OC(c1cc(O)c(O)c(O)c1)C(O)C2c1c(O)cc(O)c2c1OC(c1cc(O)c(O)c(O)c1)C(O)C2 (stereo not drawn)" reported_result=0.979
molecule="CC1COc2c(N3CCN(C)CC3)c(F)cc3c(=O)c(C(=O)O)cn1c23 (stereo not drawn)" reported_result=1.01
molecule=O=C(O)CCCc1ccccc1 reported_result=0.981
molecule="CC(C)NCC(O)COc1cccc2[nH]ccc12 (stereo not drawn)" reported_result=0.986

// Input: CC1CCc2cc(F)cc3c(=O)c(C(=O)O)cn1c23 (stereo not drawn) . Output its normalized growth only. 0.984

// Input: NCCC(O)C(=O)NC1CC(N)C(OC2OC(CN)C(O)C(O)C2N)C(OC2OC(CO)C(O)C2O)C1O (stereo not drawn) . Output its normalized growth only. 1

// Input: NC(=O)c1ccc[n+]([C@@H]2O[C@H](COP(=O)([O-])OP(=O)(O)OC[C@H]3O[C@@H](n4cnc5c(N)ncnc54)[C@H](OP(=O)(O)O)[C@@H]3O)[C@@H](O)[C@H]2O)c1 . Output its normalized growth only. 1.03

// Input: COc1ccc(-c2coc3cc(O)ccc3c2=O)c(OC)c1 . Output its normalized growth only. 1

// Input: c1ccc2c(c1)CCCC2C1=NCCN1 (stereo not drawn) . Output its normalized growth only. 0.991

// Input: COc1ccc(-c2coc3cc(OC)ccc3c2=O)cc1 . Output its normalized growth only. 0.907

// Input: COc1ccc(C(=O)O)cc1OC . Output its normalized growth only. 0.991

// Input: CNC(=O)O/N=C(\C)SC . Output its normalized growth only. 0.993

// Input: C#CCN(C)Cc1ccccc1 . Output its normalized growth only. 1.01

// Input: N[C@@H](Cc1ccc(N(CCCl)CCCl)cc1)C(=O)O . Output its normalized growth only. 0.971

// Input: COc1ccc([C@H]2Oc3c(I)c(OC)cc(OC)c3C[C@@H]2O)cc1OC . Output its normalized growth only. 1.02

// Input: O=C(O)CCCc1ccc(N(CCCl)CCCl)cc1 . Output its normalized growth only. 1

// Input: O=c1cccc2ccc(O)c(O)c2c1O . Output its normalized growth only. 0.372
